Listed next: entries and their corresponding GI50.
# Test system: NCI-H226
# assay comment: NCI tumour cell line growth inhibition, 48 h
Calls of active or inactive are those of the source. Cut-off read from the data, not from the text of the source: active = GI50 up to about 1.1 µM and inactive = higher.
quantity kind: GI50

{"columns": ["compound", "quantity kind", "measurement"],
 "data": [
  ["CC(/C=C/c1ccccc1)=N\\NC(=S)N/N=C(C)/C=C/c1ccccc1", "GI50", "21 µM (inactive)"],
  ["O=C(n1c2ccccc2c2nnc(S)nc21)C(F)(F)F", "GI50", "> 100 µM (inactive)"],
  ["Cc1nn(C(=O)c2ccc(Cl)cc2)c2c1C(c1ccc([N+](=O)[O-])cc1)SC(=N)N2 (stereo not given)", "GI50", "> 10 µM (inactive)"],
  ["CCc1nc(N)nc(N)c1-c1ccc(Cl)c([N+]#N)c1", "GI50", "> 100 µM (inactive)"],
  ["COC12c3ccccc3-c3ccccc3C1[C@@H](C(=O)O)[C@H]2C(=O)O (stereo not given in full)", "GI50", "> 10 µM (inactive)"],
  ["C#CCC1(C(=O)OCC)C(=O)c2ccccc2N(C)C1=O (stereo not given)", "GI50", "62.5 µM (inactive)"],
  ["CSC1=NN(C(C)=O)C(C(OC(C)=O)C(OC(C)=O)C(OC(C)=O)C(COC(C)=O)OC(C)=O)S1 (stereo not given)", "GI50", "> 100 µM (inactive)"],
  ["Clc1ccc(C(n2cc(Br)cn2)n2cc(Br)cn2)cc1", "GI50", "8.91 µM (inactive)"],
  ["CCOC(=O)C1(Cc2ccccc2)Cc2ccccc2C1=O (stereo not given)", "GI50", "19.7 µM (inactive)"],
  ["O=S(=O)(O)c1ccc(/N=N/c2ccc(/N=N/c3c(O)c(S(=O)(=O)O)cc4cc(S(=O)(=O)O)ccc34)cc2)cc1", "GI50", "> 100 µM (inactive)"]
]}

====

# System: K562
# assay comment: NCI tumour cell line growth inhibition, 48 h
The source made the active and inactive calls. No stated cut-off is given here; in the data, active = GI50 up to about 1.1 µM and inactive = higher.
Outcomes: true (1) (active), false (0) (inactive)

{"columns": ["molecule", "qualitative label"],
 "data": [
  ["CC[C@@]1(O)C(=O)OCc2c1cc1n(c2=O)Cc2c-1nc1ccccc1c2/C=N\\NC(=O)C(N)Cc1c[nH]c2ccccc12 (stereo partly specified)", "true (1)"],
  ["C=CCn1c(=O)n(CC=C)c(=O)n(CC=C)c1=O", "false (0)"],
  ["C=CCc1oc(C)nc1CCCC", "false (0)"],
  ["CN(C)NC(=O)NC12CC3CC(CC(C3)C1)C2", "false (0)"],
  ["COc1ccc(C(=O)C#Cc2cnc(OC)nc2OC)cc1", "true (1)"],
  ["N=C(Nc1nc(-c2ccccn2)cc2ccccc12)c1ccccn1", "true (1)"],
  ["C=Cc1ccccc1C1C(C(=O)OCC)=C(C)N=C2OC(C(=O)OC)C(=O)N21 (stereo unspecified)", "false (0)"],
  ["CCOC(=O)c1c(N2CCCC2)ncn(Cc2ccccc2)c1=S", "false (0)"],
  ["O=C(NC1CCCCC1NC(c1ccccc1)(c1ccccc1)c1ccccc1)C(=O)NC1CCCCC1NC(c1ccccc1)(c1ccccc1)c1ccccc1 (stereo unspecified)", "false (0)"],
  ["O=C1c2ccccc2CN1c1ccc(O)cc1", "false (0)"],
  ["CC1(C(=O)O)CCCC1C(=O)O (stereo unspecified)", "false (0)"]
]}
